# System: LPESG (Abz-LPESGK(Dnp)-CONH2)
# protocol_description: In vitro sortase kinetics HPLC assay, LPESG substrate
# Assay type: biochemical
# assay_setup: ratio of kcat/KM, 4S (LPESG) over wt (LPETG)
value_kind: Specificity

molecule="eSrtA(4S-3): round 3 LPESG clone: eSrtA + N98S A104T A118T F122S D124G K134R K173E K177E I182V (protein) QAKPQIPKDKSKVAGYIEIPDADIKEPVYPGPATREQLSRGVSFTEENESLDDQNISITGHTSIGRPNYQFTNLRAAKKGSMVYFKVGNETRKYKMTSIRNVKPTAVEVLDEQEGKDEQLTLVTCDDYNEETGVWETRKIFVATEVK" value_kind=Specificity result=244.976
molecule="eSrtA(4S-9): P94R, N98D, S102C, A104V, A118T, F122A, K134R, F144L, D160N, D165A, I182V, E189F, K190E, K196T (protein) QAKPQIPKDKSKVAGYIEIPDADIKEPVYPGPATREQLDRGVCFVEENESLDDQNISITGHTAIDRPNYQFTNLRAAKKGSMVYLKVGNETRKYKMTSIRNVKPTAVEVLDEQKGKDKQLTLVTCDDYNFETGVWETRKIFVATEVK" value_kind=Specificity result=24.953
molecule="eSrtA(4S-3.5) (protein) QAKPQIPKDKSKVAGYIEIPDADIKEPVYPGPATREQLNRGVSFTEENESLDDQNISITGHTFIDRPNYQFTNLKAAKKGSMVYFKVGNETRKYKMTSIRNVKPTAVEVLDEQKGKDKQLTLVTCDDYNEETGVWETRKIFVATEVK" value_kind=Specificity result=1.454
